- Target under test: Ubiquitin carboxyl-terminal hydrolase 2 (Homo sapiens) (UniProt O75604)
- Sequence (O75604 whole entry, looked up): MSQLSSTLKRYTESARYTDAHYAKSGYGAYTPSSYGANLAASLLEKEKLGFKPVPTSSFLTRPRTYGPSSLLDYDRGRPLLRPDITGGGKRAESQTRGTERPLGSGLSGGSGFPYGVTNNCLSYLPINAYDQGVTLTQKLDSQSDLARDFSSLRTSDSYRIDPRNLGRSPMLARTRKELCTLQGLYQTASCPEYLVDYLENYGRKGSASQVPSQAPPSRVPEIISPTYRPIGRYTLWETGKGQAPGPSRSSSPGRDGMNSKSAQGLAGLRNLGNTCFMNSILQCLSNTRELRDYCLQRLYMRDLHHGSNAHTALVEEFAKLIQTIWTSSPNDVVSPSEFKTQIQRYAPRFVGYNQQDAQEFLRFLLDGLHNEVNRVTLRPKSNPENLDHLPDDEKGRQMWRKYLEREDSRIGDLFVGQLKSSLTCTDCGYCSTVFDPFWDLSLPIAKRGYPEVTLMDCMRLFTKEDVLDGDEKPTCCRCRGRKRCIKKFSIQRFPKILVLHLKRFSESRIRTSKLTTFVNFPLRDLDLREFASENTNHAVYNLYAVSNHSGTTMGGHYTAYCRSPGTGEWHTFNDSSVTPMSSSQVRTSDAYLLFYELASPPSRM
- Run description: qHTS for Inhibitors of Ubiquitin-specific Protease USP2a Using CHOP2 as the Reporter: K484 Substrate (AID 652173);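 also: cleavage of internally quenched K48 di-ubiquitin substrate measured as rising fluorescence over time; potency is read from the fitted curve at half-maximal effect; nearly all actives have a fitted effect of over 70% in size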
- Test conditions: USP2 cleavage of DiUb K48 IQF substrate, fluorescence; series mostly up to 57.5 µM
Results filed as inconclusive are left out. The source made the active and inactive calls. Calls follow the shape of the dose curve; as a rule, active = well fitted inhibition curve with a large enough effect; inconclusive = small, poorly fitted or top-dose-only effect; inactive = flat fitted curve, though single readings scatter.
Measurement label: Potency

Below, each entry is followed by its recorded Potency result.
INSERT INTO results (molecule, target_under_test, result) VALUES
  ('O=C(Nc1nc(-c2ccccc2)cs1)c1ccncc1NS(=O)(=O)c1ccccc1F', 'Ubiquitin carboxyl-terminal hydrolase 2 (Homo sapiens) (UniProt O75604)', '2.43 µM (active)'),
  ('Cc1ccc(S(=O)(=O)Nc2cnccc2C(=O)Nc2nc(-c3cccc(F)c3)cs2)cc1', 'Ubiquitin carboxyl-terminal hydrolase 2 (Homo sapiens) (UniProt O75604)', '1.37 µM (active)'),
  ('CCCCC1CCC(C(=O)Nc2ccc(S(=O)(=O)Nc3nccs3)cc2)CC1 (stereo not given)', 'Ubiquitin carboxyl-terminal hydrolase 2 (Homo sapiens) (UniProt O75604)', '4.85 µM (active)'),
  ('O=C(C[C@H]1CC[C@@H](C(=O)Nc2ccc(S(=O)(=O)Nc3nccs3)cc2)C1)c1ccccc1', 'Ubiquitin carboxyl-terminal hydrolase 2 (Homo sapiens) (UniProt O75604)', '19.3 µM (active)');

Potency on Ubiquitin carboxyl-terminal hydrolase 2 (Homo sapiens) (UniProt O75604) for O=C(Nc1ccc(S(=O)(=O)Nc2nccs2)cc1)c1ccc2ccccc2c1 is 2.73 µM (active)

* * *

- Target under test: Cytochrome P450 3A4 (Homo sapiens) (UniProt P08684)
- Sequence (P08684 whole entry, looked up): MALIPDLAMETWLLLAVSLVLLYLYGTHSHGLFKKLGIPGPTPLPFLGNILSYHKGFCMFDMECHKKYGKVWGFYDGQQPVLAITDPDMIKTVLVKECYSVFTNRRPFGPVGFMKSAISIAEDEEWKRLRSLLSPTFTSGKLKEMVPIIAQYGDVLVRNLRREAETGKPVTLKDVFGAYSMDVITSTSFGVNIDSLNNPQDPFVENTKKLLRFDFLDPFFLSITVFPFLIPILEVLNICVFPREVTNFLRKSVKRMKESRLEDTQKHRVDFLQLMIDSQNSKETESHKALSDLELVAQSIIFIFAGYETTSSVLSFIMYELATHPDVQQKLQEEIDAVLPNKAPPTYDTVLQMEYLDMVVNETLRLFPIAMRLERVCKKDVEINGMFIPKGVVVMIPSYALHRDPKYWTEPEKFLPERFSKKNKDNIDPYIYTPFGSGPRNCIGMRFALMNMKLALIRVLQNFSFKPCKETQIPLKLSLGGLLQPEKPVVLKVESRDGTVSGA
- Run description: qHTS Assay for Activators of Cytochrome P450 3A4 (AID 885); also: nearly all actives have a fitted effect of over 65% in size
- Test conditions: recombinant CYP3A4, Luciferin-PPXE luminescence, 60 min; series mostly up to 57.1 µM
Activity calls are given as the source filed them. The call rests on the fitted dose curve; in most records, active means well fitted activation curve with a large enough effect; inconclusive means small, poorly fitted or top-dose-only effect; inactive means no such curve, though single readings can be large or run the other way.
Measurement label: activity change, positive = activation

Worked examples, 10 compounds total:
INSERT INTO results (compound, measurement_label, result) VALUES
  ('CCC1=C(OC(=O)N(CC)CC)N2C(=O)OC(=NCCc3c[nH]c4ccccc34)[C@]2(C)[C@H]2C1=CC[C@H]1C(=O)N(C)C(=O)[C@H]12', 'activity change, positive = activation', 'inactive'),
  ('C/C(CCN1CCc2nc(-c3ccccc3)c(-c3ccccc3)cc2C1)=N\OC[C@@H](C)[C@H](OCc1ccccc1)C(C)C', 'activity change, positive = activation', '-51.7% [at 11.4 µM] (inactive)'),
  ('CCC1=C2CC[C@H]3C(=O)N(CC(=O)OC)C(=O)[C@H]3[C@H]2[C@@]2(C)C(=NCCc3c[nH]c4ccccc34)OC(=O)N2C1=O', 'activity change, positive = activation', 'inactive'),
  ('C#CCCCO/N=C1/C[C@@H](O)[C@@H](O)[C@@H]2[C@@H]3C(=O)N(CCC(=O)OCC)C(=O)[C@H]3CC[C@@H]12', 'activity change, positive = activation', '-45.7% [at 11.4 µM] (inactive)'),
  ('CC(C)=CCC/C(C)=C/COc1c2occc2cc2ccc(=O)oc12', 'activity change, positive = activation', 'inactive'),
  ('COC(=O)[C@@H]1C[C@@H]2CC[C@@H](O)C[C@@H]2N1Cc1ccc(-c2ccccc2)cc1', 'activity change, positive = activation', 'inactive'),
  ('COC(=O)NC(c1cccc(C)c1)C(C(C)=O)C(=O)OC (configuration not stated)', 'activity change, positive = activation', '-34.6% [at 11.4 µM] (inactive)'),
  ('O=C1[C@H]2[C@H]3[C@H](O)[C@H](O)C/C(=N/OC[C@@H](O)COCc4ccco4)[C@@H]3CC[C@@H]2C(=O)N1Cc1ccc2c(c1)OCO2', 'activity change, positive = activation', '-99.9% [at 11.4 µM] (inactive)'),
  ('CCC1=C2CC[C@H]3C(=O)N(CC(=O)OC)C(=O)[C@H]3[C@H]2[C@@]2(C)C(=NCC(=O)OC)OC(=O)N2C1=O', 'activity change, positive = activation', 'inactive'),
  ('CO[C@@H]1COC(=O)C/C=C\[C@@H](C)COC(=O)[C@H](Cc2ccccc2)NC(=O)C/C=C\[C@H]1C', 'activity change, positive = activation', '-39.1% [at 11.4 µM] (inactive)');

Could I get activity change, positive = activation for every one of these entries?
1. O=C1[C@H]2[C@H]3[C@H](O)[C@H](O)C/C(=N/OC[C@@H](O)COCc4ccco4)[C@H]3CC[C@@H]2C(=O)N1Cc1ccc2c(c1)OCO2
2. COc1ccc(-c2cc(=O)c3ccccc3o2)cc1OC
3. COc1cc(/C=C/C(=O)c2cccs2)cc(OC)c1OC
4. CCCCCCC1=Cc2cc(OC)c(OC)cc2C(C(C(C)=O)C(=O)OC)O1 (configuration not stated)
5. COc1cccc([C@@H]2Oc3ccc(OC)cc3/C(=N/OC[C@@H](O)COCc3ccco3)[C@@H]2O)c1
6. CC1(C(=O)NCc2cc(F)cc(C(F)(F)F)c2)C=CC2(CCCCC2)N1C(=O)c1ccccc1 (configuration not stated)
7. COc1ccc(-c2cc(=O)c3ccccc3o2)cc1

Result:
1. -88.1% [at 11.4 µM] (inactive)
2. inactive
3. inactive
4. -57.6% [at 11.4 µM] (inactive)
5. -84.1% [at 11.4 µM] (inactive)
6. inactive
7. inactive
